System: MCF7
method_notes: Cytotoxicity against human MCF7 cells assessed as growth inhibition after 48 hrs by MTT assay
Type: functional, cell-based
test_conditions: MCF7, 48 h
Here the recorded pIC50 is given for each entry.
# pIC50 is unitless: minus log10 of the molar concentration; print number only

[[record]]
entry_smiles = "Cn1cccc1/C=C1\\COCc2c1nc1c(c2-c2cccn2C)c(=O)n(C)c(=O)n1C"
measured_property = "pIC50"
reported_measurement = 5.08


Now take the following compound into account.
Request: Give recorded pIC50 with MCF7 for the following compound: Cn1cccc1/C=C1\CCCc2c1nc1c(c2-c2cccn2C)c(=O)n(C)c(=O)n1C
Response: 5.03

----------
Tested on: HeLa
method_notes: Cytotoxicity against human HeLa cells assessed as growth inhibition after 48 hrs by MTT assay
Assay type: functional, cell-based
measured_property: pIC50
# pIC50 is unitless: minus log10 of the molar concentration; print number only

[[record]]
entry_smiles = "Cn1cccc1/C=C1\\COCc2c1nc1c(c2-c2cccn2C)c(=O)n(C)c(=O)n1C"
target_or_test_system = "HeLa"
measured_property = "pIC50"
reported_measurement = 4.71


Now take the following compound into account.
Request: Name the recorded pIC50 for Cn1cccc1/C=C1\CCCc2c1nc1c(c2-c2cccn2C)c(=O)n(C)c(=O)n1C .
Response: 4.88

----------
Tested on: SW-620
method_notes: Cytotoxicity against human SW620 cells assessed as growth inhibition after 48 hrs by MTT assay
Assay type: functional, cell-based
test_conditions: SW-620, 48 h
Here the recorded IC50 is given for each entry.
Give just the number in µM; leave the unit off.

[[record]]
entry_smiles = "Cn1cccc1/C=C1\\CCCc2c1nc1c(c2-c2cccn2C)c(=O)n(C)c(=O)n1C"
unit_label = "µM"
reported_measurement = 8.54


Now take the following compound into account.
Request: Name the recorded IC50 for Cn1cccc1/C=C1\COCc2c1nc1c(c2-c2cccn2C)c(=O)n(C)c(=O)n1C .
Response: 14
